Each entry below carries its reported pIC50.
Molecular target: full-length human BTK (Homo sapiens (Human))
Assay: BTK IC50 enzyme assay (microfluidic off-chip mobility shift kinase assay)
Conditions: incubated for 90 min. at 27 C; read-out: Time Dependent BTK Enzyme Assay IC50
pIC50: −log10 of the molar value.

Entry CN(C)C/C=C/C(=O)N1CCC(CNc2ncnc(N)c2-c2ccc(Oc3ccccc3)cc2)(C(=O)O)CC1 [A217] , tested on full-length human BTK (Homo sapiens (Human)), has a reported pIC50 of > 6.00

// molecule CC#CC(=O)[C@H]1CCC[C@H](Nc2ncnc(N)c2-c2ccc(Oc3ccccc3)cc2)C1 [A145] , assay full-length human BTK (Homo sapiens (Human)), pIC50 value: > 7.00

Measured pIC50 (full-length human BTK (Homo sapiens (Human))), entry CCC(=O)Nc1cccc(-c2cnccc2Oc2ccc(Oc3ccccc3)cc2)c1 [A319] : < 6.00

The measured pIC50 that C=CC(=O)Nc1cccc(Oc2ncnc(N)c2-c2ccc(OCc3cccc(F)c3)cc2)c1 [A260] showed for full-length human BTK (Homo sapiens (Human)) is > 7.00

pIC50 on full-length human BTK (Homo sapiens (Human)) for CC#CC(=O)N1CC[C@@H](CNc2ncnc(N)c2-c2ccc(Oc3ccccc3)cc2)[C@H](O)C1 [A215] is > 7.00

====

Listing of recorded IC50 by entry.
Target: full-length human BTK (Homo sapiens (Human), UniProt Q06187)
Sequence (Q06187 whole entry): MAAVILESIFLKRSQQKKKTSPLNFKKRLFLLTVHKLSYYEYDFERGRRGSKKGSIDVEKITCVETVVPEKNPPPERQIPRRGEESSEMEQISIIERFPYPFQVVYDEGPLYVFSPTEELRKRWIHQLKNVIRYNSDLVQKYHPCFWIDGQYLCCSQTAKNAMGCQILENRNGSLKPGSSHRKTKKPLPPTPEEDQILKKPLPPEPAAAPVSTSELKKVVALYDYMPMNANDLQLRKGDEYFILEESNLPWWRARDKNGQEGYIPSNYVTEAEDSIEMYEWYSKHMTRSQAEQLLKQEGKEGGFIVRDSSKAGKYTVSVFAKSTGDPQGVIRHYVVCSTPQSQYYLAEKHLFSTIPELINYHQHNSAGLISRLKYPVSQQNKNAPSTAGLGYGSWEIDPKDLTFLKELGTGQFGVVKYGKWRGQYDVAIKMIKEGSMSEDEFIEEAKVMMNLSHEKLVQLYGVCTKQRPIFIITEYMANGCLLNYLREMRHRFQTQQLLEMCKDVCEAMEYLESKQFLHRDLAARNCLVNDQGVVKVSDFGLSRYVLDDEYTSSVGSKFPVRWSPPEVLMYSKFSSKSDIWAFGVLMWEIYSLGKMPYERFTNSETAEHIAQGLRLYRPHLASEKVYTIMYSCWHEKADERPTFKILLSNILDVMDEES
Assay: BTK IC50 enzyme assay (microfluidic off-chip mobility shift kinase assay)
Conditions: incubated for 90 min. at 27 C; read-out: Time Dependent BTK Enzyme Assay IC50
Experimental: The following describes a microfluidic, off-chip mobility shift kinase assay used to measure inherent potency of compounds against BTK enzyme. Compounds described by embodiments of the present invention were assayed using this protocol and the data from the same is recorded in Table 2 within the column labeled: “Time Dependent BTK Enzyme Assay IC50”. […]

Solved entries (count: 6):
Compound	IC50
CN(C)C/C=C/C(=O)N1CCCC(Nc2ncnc(N)c2-c2ccc(Oc3ccccc3)cc2)C1 (stereo not drawn) [A160]	< 1 µM
C=CC(=O)Nc1cccc(Nc2ncnc(N)c2-c2cnn(Cc3ccccc3)c2)c1 [A70]	< 0.1 µM
C=CC(=O)N1CCC(Nc2ncnc(N)c2-c2ccc(Oc3ccccc3)cc2)CC12CCC2 (stereo not drawn) [A125]	> 1 µM
C=CC(=O)N1CC=C(c2c(N)ncnc2Oc2ccc(Oc3ccccc3)cc2)CC1 [A263]	< 1 µM
C=CC(=O)N1CCC(CNc2ncnc(N)c2-c2ccc(OC(F)(F)F)cc2)CC1 [A78]	> 1 µM
CC=CC(=O)[C@H]1CCC[C@@H](Nc2ncnc(N)c2-c2ccc(Oc3ccccc3)cc2)C1 [A146]	< 0.1 µM

IC50 measured on C#CC(=O)N1CC(CCNc2ncnc(N)c2-c2ccc(Oc3ccccc3)cc2)C1 [A104] = < 0.1 µM

Entry C=CC(=O)N1CCC(CNc2ncnc(N)c2-c2ccc(C(F)(F)F)cc2)CC1 [A81] ; IC50 = > 1 µM

Quick note, IC50 for C=CC(=O)Nc1cccc(Oc2ncnc(N)c2-c2ccc(OCc3ccccc3)c(OC)c2)c1 [A256] landed at < 0.1 µM

====

Molecular target: full-length human BTK (Homo sapiens (Human), UniProt Q06187)
Test: BTK IC50 enzyme assay (microfluidic off-chip mobility shift kinase assay)
Conditions: incubated for 90 min. at 27 C; read-out: Time Dependent BTK Enzyme Assay IC50
Quantity Name: IC50

Please review the entries below; each comes with its answer.
Molecule	Result
C=CS(=O)(=O)Nc1cccc(Oc2ncnc(N)c2-c2ccc(Oc3ccccc3)cc2)c1	< 100 nM
C#CC(=O)N1CCC2(CC(Nc3ncnc(N)c3-c3ccc(Oc4ccccc4)cc3)C2)C1 (stereo not drawn)	< 100 nM
C=CC(=O)N1CCCCC(Nc2ncnc(N)c2-c2ccc(Oc3ccccc3)cc2)C1 (stereo not drawn)	< 100 nM

IC50 recorded for this molecule, "C=CC(=O)Nc1cccc(Oc2ncnc(N)c2-c2c(F)cc(OCc3ccccc3)cc2F)c1" , is < 1000 nM

So for "C=CC(=O)Nc1ccc(Oc2ccncc2-c2ccc(Oc3ccccc3)cc2)cc1" , the logged IC50 turned out to be > 1000 nM

Notebook: "C=CC(=O)Nc1cncc(Oc2ncnc(N)c2-c2cnn(Cc3ccccc3)c2)c1" , IC50 read as < 100 nM

The reported measurements were obtained from patent US9580449B2.
